Data provenance is paper PMC6832920.

A set of compounds tested on Staphylococcus aureus 25923, with measured MIC:

Incoming: Write down MIC measured for item COc1ccc(-c2cc(-c3ccco3)nc3sc4c(N=Cc5cccs5)c5c(nc4c23)CCCC5)cc1 [Compound 12b]
Outgoing: 15.6 µg/mL

Incoming: Write down MIC measured for item CC(=O)CC(=O)Nc1c2c(nc3c1sc1nc(-c4ccco4)cc(-c4cccs4)c13)CCCC2
Outgoing: 31.2 µg/mL

Incoming: Write down MIC measured for item NC(=O)c1sc2nc(-c3ccco3)cc(-c3cccs3)c2c1N=C1CCCCC1
Outgoing: 31.2 µg/mL

Incoming: Write down MIC measured for item COc1ccc(-c2cc(-c3ccco3)nc3sc4c(NC(=O)CN5CCOCC5)c5c(nc4c23)CCCC5)cc1
Outgoing: 15.6 µg/mL

Incoming: Write down MIC measured for item COc1ccc(-c2cc(-c3ccco3)nc3sc4c(NC(=O)CNN)c5c(nc4c23)CCCC5)cc1
Outgoing: 15.6 µg/mL

====

Can you tell me IC50 for the items I'm about to list?
Write down the numeric answer in µM and omit the unit.

Incoming: Please tell me the measured IC50 for COc1ccc(-c2cc(-c3ccco3)nc3sc4c(N=Cc5cccs5)c5c(nc4c23)CCCC5)cc1 [Compound 12b] ; system: DNA gyrase from E. coli (Escherichia coli, UniProt P0AES6).
Outgoing: 4.6

Incoming: Please tell me the measured IC50 for COc1ccc(-c2cc(-c3ccco3)nc3sc4c(NC(=O)CCl)c5c(nc4c23)CCCC5)cc1 [Compound 6a] ; system: DNA gyrase from E. coli (Escherichia coli, UniProt P0AES6).
Outgoing: 13.7

Incoming: Please tell me the measured IC50 for COc1ccc(-c2cc(-c3ccco3)nc3sc4c(NC(=O)CNN)c5c(nc4c23)CCCC5)cc1 [Compound 7a] ; system: DNA gyrase from E. coli (Escherichia coli, UniProt P0AES6).
Outgoing: 8.66

Incoming: Please tell me the measured IC50 for NC(=O)c1sc2nc(-c3ccco3)cc(-c3cccs3)c2c1N [Compound 3b] ; system: DNA gyrase from E. coli (Escherichia coli, UniProt P0AES6).
Outgoing: 4.5

Incoming: Please tell me the measured IC50 for CC1=NN=C(Nc2c3c(nc4c2sc2nc(-c5ccco5)cc(-c5cccs5)c24)CCCC3)C1 [Compound 14] ; system: DNA gyrase from E. coli (Escherichia coli, UniProt P0AES6).
Outgoing: 11.7

Incoming: Please tell me the measured IC50 for COc1ccc(-c2cc(-c3ccco3)nc3sc(C(N)=O)c(N)c23)cc1 [Compound 3a] ; system: DNA gyrase from E. coli (Escherichia coli, UniProt P0AES6).
Outgoing: 2.26

Incoming: Please tell me the measured IC50 for COc1ccc(-c2cc(-c3ccco3)nc3sc4c(NC(=O)CN5CCN(C)CC5)c5c(nc4c23)CCCC5)cc1 [Compound 9b] ; system: DNA gyrase from E. coli (Escherichia coli, UniProt P0AES6).
Outgoing: 5.78

Incoming: Please tell me the measured IC50 for COc1ccc(-c2cc(-c3ccco3)nc3sc(C(N)=O)c(N=C4CCCCC4)c23)cc1 [Compound 4a] ; system: DNA gyrase from E. coli (Escherichia coli, UniProt P0AES6).
Outgoing: 3.69

Incoming: Please tell me the measured IC50 for O=C(CCl)Nc1c2c(nc3c1sc1nc(-c4ccco4)cc(-c4cccs4)c13)CCCC2 [Compound 6b] ; system: DNA gyrase from E. coli (Escherichia coli, UniProt P0AES6).
Outgoing: 5.95

Incoming: Please tell me the measured IC50 for Nc1c2c(nc3c1sc1nc(-c4ccco4)cc(-c4cccs4)c13)CCCC2 [Compound 5b] ; system: DNA gyrase from E. coli (Escherichia coli, UniProt P0AES6).
Outgoing: 16.7
